Origin of the recorded values: patent US20250092065A1

Test system: HTT mRNA
test_method_notes: RT-qPCR splicing assay, HTT mRNA canonical (CJ) and alternative (AJ) junction
Type: cell-based, human
recorded_conditions: Homo sapiens, HTT canonical junction mRNA, RT-qPCR; read-out: HTT CJ (decrease in CJ mRNA levels, IC50)
pIC50: −log10 of the molar value.
pIC50 reference

These solved cases illustrate the format of a correct answer.
[[record]]
molecule = "Cc1nc2c(C)c(O)c(-c3ccc4nc(N5CC[C@@H](NC6CC6)C5)ccc4n3)cc2o1"
recorded_result = "> 7.00"

[[record]]
molecule = "Cn1cnc2cc(-c3ccc4nc(N5CCC(NC(C)(C)C)C5)ccc4n3)c(O)cc2c1=O (stereo not shown)"
recorded_result = "< 5.00"

[[record]]
molecule = "Cc1cc(N2C[C@@H](C)N[C@@H](C)C2)cc2c(Cl)cc(-c3cc4cn(C)nc4c(F)c3O)nc12"
recorded_result = "> 7.00"


Cc1cc(=O)c2cc(O)c(-c3ccc4nc(N5CCC(NC(C)(C)C)C5)ccc4n3)cc2o1 (stereo not shown) has a reported pIC50 of < 5.00

The measured pIC50 associated with CN(C)C1CCN(c2ccc3nc(-c4cc5cn(C)nc5cc4O)ccc3n2)C1 (stereo not shown) reads 6.00 to 7.00

Summary for this molecule, Cn1cc2cc(-c3nc(C#N)c4cc(N5CCNCC5)ccc4n3)c(O)c(F)c2n1 : pIC50 is 6.00 to 7.00

Per the record, Cc1nc2c(F)c(O)c(-c3ccc4nc(N5CC[C@@H](N[C@H]6C[C@@H](F)C6)C5)ccc4n3)cc2o1 (stereo in doubt) has pIC50 of > 7.00

###

System: MYB
test_method_notes: HiBiT protein abundance assay, MYB (K562 HiBiT knock-in)
Type: cell-based, human
recorded_conditions: HiBiT knock-in K562 cells, 24 hours, top dose 10 μM
measured_endpoint: IC50

[[record]]
compound = "CNC(=O)c1nc(-c2cc3cn(C)nc3cc2O)nc2ccc(N3CCC(N(C)C)CC3)cc12 [Compound 742]"
measured_endpoint = "IC50"
recorded_result = "100 to 1000 nM"


The measured IC50 associated with Cn1cc2cc(-c3ccc4nc(N5CC[C@@H](NC6CCC6)C5)ccc4n3)c(O)c(F)c2n1 (single isomer, unassigned) [Compound 316] reads < 100 nM

Sample C[C@H]1CN(c2cc(F)c3nc(-c4cc5cn(C)nc5cc4O)ccc3c2)C[C@H](C)N1 (single isomer, unassigned) [Compound 770] ; IC50 observed: < 100 nM

For record Cn1cc2cc(-c3ccc4nc(C5CCNCC5)ccc4n3)c(F)cc2n1 [Compound 193] the listed IC50 is 1000 to 10000 nM

Record Cc1nc2c(C)c(O)c(-c3ccc4nc(N5CC[C@H](NC6(CF)CC6)C5)ccc4n3)cc2o1 (single isomer, unassigned) [Compound 378] , field IC50: < 100 nM

The recorded IC50 for entry Cn1cc2cc(-c3ccc4nc(N5CCC(NC6CC6)C5)ccc4n3)c(O)c(F)c2n1 (racemic) [Compound 287, trifluoroacetic acid] equals < 100 nM

// IC50 lookup, compound = CNC(=O)c1nc(-c2cc3cn(C)nc3c(C)c2O)nc2ccc(N3CC[C@H](NC)C3)cc12 [Compound 537] , result: < 100 nM

Just so you know, measured IC50 for Cc1nc2cc(O)c(-c3ccc4nc(N5CC[C@@H](N(C)C(C)(C)C)C5)ccc4n3)cc2o1 [Compound 493] came out at < 100 nM

The compound Cn1cc2cc(-c3ccc4nc(N5CC[C@@H](NC6CCC6)C5)ccc4n3)c(O)cc2n1 [Compound 157] showed IC50 equal to < 100 nM

// recorded IC50 for COc1cc2nc(C3COC3)oc2cc1-c1ccc2nc(N3CCC(NC(C)(C)C)C3)ccc2n1 (stereo not drawn) [Compound 335] : 1000 to 10000 nM

Record Cc1nc2cc(O)c(-c3ccc4nc(N5CCC(NC(C)C)C5)ccc4n3)cc2o1 (stereo not drawn) [Compound 231] , field IC50: < 100 nM
